Reported log2 fold change of degron read counts values for the following sequences.
system: T1, CRBN, Q96SW2;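 also: pooled lentiviral library of zinc finger degron-EGFP fusions in mCherry-positive Jurkat cells, FACS-sorted after compound exposure, with degron abundance counted by next-generation sequencing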
T1 chain: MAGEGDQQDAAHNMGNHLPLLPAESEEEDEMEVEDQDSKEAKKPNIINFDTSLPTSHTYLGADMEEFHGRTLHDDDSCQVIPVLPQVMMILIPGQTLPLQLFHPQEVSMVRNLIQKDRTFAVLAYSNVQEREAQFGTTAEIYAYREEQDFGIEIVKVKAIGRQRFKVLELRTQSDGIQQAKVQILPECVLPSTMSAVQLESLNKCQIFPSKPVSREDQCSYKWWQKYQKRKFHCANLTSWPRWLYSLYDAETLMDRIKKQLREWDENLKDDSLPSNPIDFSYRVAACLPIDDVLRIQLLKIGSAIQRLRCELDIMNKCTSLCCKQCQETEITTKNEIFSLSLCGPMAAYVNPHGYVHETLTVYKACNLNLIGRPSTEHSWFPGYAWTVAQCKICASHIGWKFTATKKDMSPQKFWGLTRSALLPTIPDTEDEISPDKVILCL
experimentalProtocol: log2 fold change of degron read counts, EGFP-low vs EGFP+ sorted cells (limma voom), compound-induced degradation; higher = more compound-induced degradation of the degron-EGFP fusion; degrons are variants of IKZF1/3 zinc finger 2; compound dose not given here
measurementContext: Jurkat; 18 h; compound: thalidomide
Over roughly 8,300 sequences, “log2 fold change of degron read counts, EGFP-low vs EGFP+ sorted cells (limma voom), compound-induced degradation” has its median near -1.1; the highest 2% begin near 3.2. Many of the other results were omitted from the sample, so the highest values are more common in it than they were.
Just the number.

These solved cases illustrate the format of a correct answer.
recordSequence	measured
FMCEICGRDFTQKGNLLRHIKL [46F_47M_49E_50I_52G_53R_54D_55F_67L_, Q9UKT9]	-2.87
LQCPICGFRCTQKGNLLRHIKL [46L_47Q_49P_50I_52G_53F_54R_55C_67L_, Q9UKT9]	3.35
FICNQCGAGFTQKGNLLRHIKL [46F_47I_49N_50Q_52G_53A_54G_55F_67L_, Q9UKT9]	-0.966

Please give the measured log2 fold change of degron read counts for this sequence: FGCPVCGAVFTQKGNLLRHIKL [46F_47G_49P_50V_52G_53A_54V_55F_67L_, Q9UKT9] 1.15

Follow-up entry: LMCPICGFRCTQKGNLLRHIKL [46L_47M_49P_50I_52G_53F_54R_55C_67L_, Q9UKT9] 2

Follow-up entry: LECPICGFRCTQKGNLLRHIKL [46L_47E_49P_50I_52G_53F_54R_55C_67L_, Q9UKT9] 3.62

Follow-up entry: FVCPICGRIFTQKGNLLRHIKL [46F_47V_49P_50I_52G_53R_54I_55F_67L_, Q9UKT9] 1.32

Follow-up entry: LTCPICGFICTQKGNLLRHIKL [46L_47T_49P_50I_52G_53F_54I_55C_67L_, Q9UKT9] 1.78
